biological target: UniProt P35372; test: OPRMu1 Discover X β-arrestin Assay, antagonist mode (U2OS cells, DAMGO EC80 challenge)
Documented IC50 across a set of compounds

[[record]]
compound = "CCc1cc(-c2ccn(C)n2)c2nc(N3CCNC[C@H]3C)c(-c3nc(C)no3)c(C)c2c1 [Compound 104]"
property_measured = "IC50"
assay_value = "> 1000 nM"

[[record]]
compound = "CCc1cc(F)c2nc(N3CCN(C4CCOCC4)C[C@@H]3C)c(-c3nc(C)no3)c(C)c2c1 (single isomer, unassigned) [Compound 28]"
property_measured = "IC50"
assay_value = "> 1000 nM"

[[record]]
compound = "CCc1cc(F)c2nc(N3CCC(N[C@@H]4CCCC(F)(F)C4)CC3)c(-c3ccn(C)n3)c(C)c2c1 [Compound 74]"
property_measured = "IC50"
assay_value = "100 to 1000 nM"


Which value of IC50 has been reported for CCc1cc(F)c2nc(N3CCNC4CC43)c(-c3nc(C)no3)c(C)c2c1 (stereo not shown) [Compound 64] in the records? > 1000 nM

Try the compound CCc1cc(F)c2nc(N3CCN(C(=O)[C@H]4COCCN4C)C[C@H]3C)c(-c3nc(C)no3)c(C)c2c1 [Compound 184] > 1000 nM

Please give the result for CCc1cc(-c2ccnn2C)c2nc(N3CCC(N[C@@H]4COC[C@@H]4F)CC3)c(-c3ccn(C)n3)c(C)c2c1 [Compound 88] too. 100 to 1000 nM

Next record, please: CCc1cc(-c2cc(C)nn2C)c2nc(N3CCC(N[C@@H]4CCOC4)CC3)c(-c3ccn(C)n3)c(C)c2c1 [Compound 95] 10 to 100 nM

Another compound: CCc1cc(-c2cc(C)nn2C)c2nc(N3CC[C@H](NC4CCOCC4)[C@H](F)C3)c(-c3ccn(C)n3)c(C)c2c1 [Compound 96] > 1000 nM

* * *

IC50 by entry:
target: mu opioid receptor (MOR) (Homo sapiens); test: OPRMu1 Discover X β-arrestin Assay, antagonist mode (U2OS cells, DAMGO EC80 challenge)
Sequence (P35372 whole entry): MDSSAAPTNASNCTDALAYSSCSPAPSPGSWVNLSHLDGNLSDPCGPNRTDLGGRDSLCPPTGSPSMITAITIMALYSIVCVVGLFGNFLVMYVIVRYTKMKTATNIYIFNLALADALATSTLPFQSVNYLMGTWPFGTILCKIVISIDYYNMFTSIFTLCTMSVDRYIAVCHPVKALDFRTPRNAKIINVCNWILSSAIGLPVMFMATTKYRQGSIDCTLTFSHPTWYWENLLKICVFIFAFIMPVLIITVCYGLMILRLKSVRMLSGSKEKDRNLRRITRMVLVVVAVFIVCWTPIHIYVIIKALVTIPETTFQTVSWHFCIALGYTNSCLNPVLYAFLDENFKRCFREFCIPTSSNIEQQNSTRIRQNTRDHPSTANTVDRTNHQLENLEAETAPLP

Some compounds with recorded IC50:
[[record]]
compound = "CCc1cc(-c2ccnn2C)c2nc(N3CCC(N4CCOC[C@H]4C)CC3)c(-c3ccn(C)n3)c(C)c2c1 [Compound 93]"
assay_value = "> 1000 nM"

[[record]]
compound = "CCc1cc(F)c2nc(N3CC[C@@H](N[C@@H]4CCCOC4)C[C@@H]3C)c(-c3ccn(C)n3)c(C)c2c1 [Compound 120]"
assay_value = "> 1000 nM"

[[record]]
compound = "CCc1cc(F)c2nc(N3CCN(C4CC5(CCOCC5)C4)C[C@H]3C)c(-c3nc(C)no3)c(C)c2c1 [Compound 42]"
assay_value = "> 1000 nM"


Shifting focus to the compound that follows.
Request body: readout IC50, system mu opioid receptor (MOR) (Homo sapiens), query CCc1cc(-c2ccnn2C)c2nc(N3CCC(NCC4(F)CCC4)CC3)c(-c3ccn(C)n3)c(C)c2c1 [Compound 90] . Return the value. 10 to 100 nM

* * *

This listing pairs molecules with measured pIC50.
target: kappa opioid receptor (KOR) (Homo sapiens); experiment: OPRKappa 1 Tango B-Arrestin Assay, antagonist mode (Tango OPRK1-bla U2OS cells, U50488 EC80 challenge); settings: antagonist mode, Tango OPRK1-bla U2OS cells, 6 nM U50488 challenge
pIC50: −log10 of the molar value.

[[record]]
molecule = "CCc1cc(F)c2nc(N3CCN(C(=O)CN4CCC(F)(F)CC4)C[C@H]3C)c(-c3nc(C)no3)c(C)c2c1 [Compound 156]"
property_measured = "pIC50"
assay_value = "8.00 to 9.00"


Using the record for CCc1cc(-c2ccn(C)n2)c2nc(N3CCNC[C@H]3C)c(-c3nc(C)no3)c(C)c2c1 [Compound 104] , report its pIC50. 7.00 to 8.00

Also, CCc1cc(F)c2nc(N3CCN(C(=O)CCN(C)C)C[C@H]3C)c(-c3nc(C)no3)c(C)c2c1 [Compound 43] please. 7.00 to 8.00

Now the same for CCc1cc(F)c2nc(N3CCN(C[C@@H]4CCOC4)C[C@H]3C)c(-c3ccn(C)n3)c(C)c2c1 [Compound 57] ≤ 7.00

// next record CCc1cc(F)c2nc(N3CCN(C[C@@H]4CCCO4)C[C@H]3C)c(-c3nc(C)no3)c(C)c2c1 [Compound 29] 8.00 to 9.00

Same again, this time with CCc1cc(F)c2nc(N3CCN(C(=O)C(C)(C)N4CCCC4)C[C@H]3C)c(-c3ccn(C)n3)c(C)c2c1 [Compound 169] 8.00 to 9.00

* * *

Items are presented alongside their recorded IC50.
target: kappa opioid receptor (KOR) (Homo sapiens, UniProt P41145); assay: OPRKappa 1 Tango B-Arrestin Assay, antagonist mode (Tango OPRK1-bla U2OS cells, U50488 EC80 challenge); settings: antagonist mode, Tango OPRK1-bla U2OS cells, 6 nM U50488 challenge
Sequence (P41145 whole entry): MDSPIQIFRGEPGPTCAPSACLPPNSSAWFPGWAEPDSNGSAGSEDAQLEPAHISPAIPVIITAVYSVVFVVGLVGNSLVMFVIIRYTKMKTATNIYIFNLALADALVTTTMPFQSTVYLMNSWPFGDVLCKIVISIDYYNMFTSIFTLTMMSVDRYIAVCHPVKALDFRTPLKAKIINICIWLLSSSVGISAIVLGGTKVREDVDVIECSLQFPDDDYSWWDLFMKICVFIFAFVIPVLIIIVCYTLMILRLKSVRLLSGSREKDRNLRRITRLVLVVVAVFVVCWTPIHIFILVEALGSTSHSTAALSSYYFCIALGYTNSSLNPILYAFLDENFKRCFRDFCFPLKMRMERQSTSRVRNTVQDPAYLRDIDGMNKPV

Example entries and their recorded answers appear below.
[[record]]
compound = "CCc1cc(F)c2nc(N3CCN(C(=O)[C@@H](C)N(CC)CC)C[C@H]3C)c(-c3ccn(C)n3)c(C)c2c1 [Compound 170]"
assay_value = "0.01 to 0.1 µM"

[[record]]
compound = "CCc1cc(F)c2nc(N3CC[C@H]4[C@H](CCN4[C@@H]4CCCOC4)C3)c(-c3ccn(C)n3)c(C)c2c1 [Compound 126]"
assay_value = "0.01 to 0.1 µM"

[[record]]
compound = "CCc1cc(F)c2nc(N3CCN(C(=O)[C@H](CO)N(C)C)C[C@H]3C)c(-c3cc(C)no3)c(C)c2c1 [Compound 168]"
assay_value = "0.001 to 0.01 µM"

[[record]]
compound = "CCc1cc(F)c2nc(N3CC[C@H](N[C@@H]4CCOC4)C[C@@H]3C)c(-c3ccn(C)n3)c(C)c2c1 [Compound 117]"
assay_value = "0.001 to 0.01 µM"

[[record]]
compound = "CCc1cc(F)c2nc(N3CCN(C[C@@H]4CCCO4)C[C@H]3CC)c(-c3nc(C)no3)c(C)c2c1 [Compound 35]"
assay_value = "0.01 to 0.1 µM"


Item CCc1cc(-c2cc(C)nn2C)c2nc(N3CCC(N[C@@H]4CCOC4)CC3)c(-c3ccn(C)n3)c(C)c2c1 [Compound 95] has what recorded IC50? < 0.001 µM

Same again, this time with CCc1cc(-c2ccnn2C)c2nc(N3CCC(N[C@@H]4COC[C@@H]4F)CC3)c(-c3ccn(C)n3)c(C)c2c1 [Compound 88] 0.001 to 0.01 µM

* * *

molecular target: kappa opioid receptor (KOR) (Homo sapiens, UniProt P41145); experiment: OPRKappa 1 Tango B-Arrestin Assay, antagonist mode (Tango OPRK1-bla U2OS cells, U50488 EC80 challenge); details: antagonist mode, Tango OPRK1-bla U2OS cells, 6 nM U50488 challenge
Listing: IC50 of selected compounds

[[record]]
item_smiles = "CCc1cc(F)c2nc(N3CCN(C(=O)[C@H]4CCCN4C)C[C@H]3C)c(-c3nc(C)no3)c(C)c2c1"
assay_value = "1 to 10 nM"

[[record]]
item_smiles = "CCc1cc(F)c2nc(N3CCN(C(=O)[C@@H]4C[C@@H](O)CN4C)C[C@H]3C)c(-c3cc(C)no3)c(C)c2c1"
assay_value = "1 to 10 nM"

[[record]]
item_smiles = "CCc1cc(F)c2nc(N3CC[C@@H](N[C@@H]4CCCOC4)C[C@@H]3C)c(-c3ccn(C)n3)c(C)c2c1"
assay_value = "< 1 nM"

[[record]]
item_smiles = "CCc1cc(F)c2nc(N3CCN(C(=O)[C@@H](C)N4CC[C@@H](O)C4)C[C@H]3C)c(-c3nc(C)no3)c(C)c2c1"
assay_value = "10 to 100 nM"


What value of measured IC50 is listed for `CCc1cc(F)c2nc(N3CCC(N[C@@H]4CCOC4)CC3)c(-c3cc(C(F)(F)F)n(C)n3)c(C)c2c1` ? 10 to 100 nM

// same read-out, input: `CCc1cc(F)c2nc(N3CCN(C(=O)CN4CCCC4)C[C@H]3C)c(-c3ccn(C)n3)c(C)c2c1` 1 to 10 nM

Consider next the compound `CCc1cc(C#N)c2nc(N3CCC(N[C@@H]4CCOC[C@@H]4F)CC3)c(-c3ccn(C)n3)c(C)c2c1` in the same way. < 1 nM

Let us now turn to `CCc1cc(F)c2nc(N3CCC(N[C@H]4CCOC4)CC3)c(-c3cc(C(F)(F)F)n(C)n3)c(C)c2c1` 10 to 100 nM

Check `CCc1cc(F)c2nc(N3CCN(C(=O)[C@@H]4CCCN4C)C[C@H]3C)c(-c3cc(C)no3)c(C)c2c1` too. 10 to 100 nM

# iterate: `CCc1cc(F)c2nc(N3CC[C@@H](N[C@@H]4CCOC4)C[C@@H]3C)c(-c3ccn(C)n3)c(C)c2c1` 1 to 10 nM

Also `CCc1cc(F)c2nc(N3CCN(C(=O)[C@H](C)N4CC[C@@H](O)C4)C[C@H]3C)c(-c3nc(C)no3)c(C)c2c1` ? ≥ 100 nM

How about `CCc1cc(F)c2nc(N3CCN(C[C@H]4CCOC4)C[C@H]3C)c(-c3ccn(C)n3)c(C)c2c1` ? 10 to 100 nM

Now this one: `CCc1cc(F)c2nc(N3CCC(N[C@H]4CCOC[C@@H]4F)CC3)c(-c3cc(C)n(C)n3)c(C)c2c1` 1 to 10 nM

Another: `CCc1cc(-c2ccnn2C)c2nc(N3CC[C@@H](NC4CCOCC4)[C@@H](F)C3)c(-c3ccn(C)n3)c(C)c2c1` 1 to 10 nM
